Tested on: SNB-75 CNS
Experiment: NCI tumour cell line growth inhibition, 48 h
measurement-name: TGI

In the examples that follow, each entry is paired with its recorded TGI.
O=c1c2ccccc2n2nnc3ccc(NCCCNCCNCCCNc4ccc5nnn6c7ccccc7c(=O)c4c56)c1c32 :: > 27.2 µM
O=C1O[C@H](C(Cl)(Cl)Cl)N2CCCC12 (stereo partly drawn) :: > 100 µM

Input line: Look up TGI: O=Nc1c(-c2cccc([N+](=O)[O-])c2)nc2cnccn12
Output line: > 100 µM

Input line: Look up TGI: O=C(Nc1ccc(Cl)cc1)c1cc2c(cc1O)[nH]c1ccccc12
Output line: 8.78 µM

Input line: Look up TGI: COc1ccc(Nc2ncccc2/C=C/C(=O)c2cc(OC)c(OC)c(OC)c2)cc1
Output line: 2.37 µM

Input line: Look up TGI: COc1cc(N=Nc2ccccc2)cc(/C=N\[N-]C(N)=S)c1[O-].COc1cc(N=Nc2ccccc2)cc(/C=N\[N-]C(N)=S)c1[O-].[Fe+4]
Output line: > 100 µM

Input line: Look up TGI: CSc1nc(NC2OCC(O)C(O)C2O)c(N)c(=O)n1C (stereo not drawn)
Output line: > 100 µM

Input line: Look up TGI: O=C(CN1CCCCC1)c1ccc2c(c1)Sc1ccccc1O2
Output line: 24.2 µM

---

System: COLO 205 colon
Experiment: NCI tumour cell line growth inhibition, 48 h; in the data active means GI50 below about 0.43 µM; inactive means the rest
Lab note: assign the record to one of YES (active), NO (inactive)

# count of solved cases: 5
Cc1ccc2c[c]1[Hg][CH2]COS2(=O)=O :: NO
CN(C)/C=C/c1nnnn1-c1ccc(Cl)cc1 :: NO
CCOC(=O)c1c2c(n3ccc(NC(=O)OC(C)(C)C)cc13)C(=O)c1ncccc1C2=O :: YES
N#Cc1c2ccccc2c2n1-c1ccccc1OC(c1ccccc1)C2=O (centres undefined) :: NO
CCCCCCCCCCCCCCCC(=O)OCC1OC(n2cnc3c(=S)nc(N)[nH]c32)C(OC(=O)CCCCCCCCCCCCCCC)C1OC(=O)CCCCCCCCCCCCCCC (centres undefined) :: NO

Input line: Please share the test call associated with O=C(Cn1c(=O)c(-c2ccccc2)nc2ccccc21)c1cccnc1 .
Output line: NO

Input line: Please share the test call associated with COc1ccc(Nc2ncccc2/C=C/C(=O)c2cc(OC)c(OC)c(OC)c2)cc1 .
Output line: NO

Input line: Please share the test call associated with CCN(CC)c1ccc(N=C2C=C(C(=O)Nc3ccc(S(C)(=O)=O)cc3)C(=O)c3ccccc32)c(C)c1 .
Output line: NO

---

Test system: EKVX NSCLC
Test: NCI tumour cell line growth inhibition, 48 h; in the data active = GI50 below about 0.43 µM; inactive = the rest
Lab note: assign the record to one of y for active, n for inactive

# count of solved cases: 8
CCc1ccc(-c2ccc(=O)n(-c3ccc(S(N)(=O)=O)cc3)n2)cc1 :: n
Nc1ccc(-c2nc3ccccc3[nH]2)c(O)c1 :: n
C=C1C(=O)O[C@H]2[C@H]1CC/C(CNC(=O)/C=C/c1cccc(OC)c1)=C\CC[C@@]1(C)O[C@@H]21 :: n
COc1cc2c(c(OC)c1OC)-c1ccc(NNC(=S)N(Cc3cccc(C[N+](Cc4cccc(CNC56CC7CC(CC(C7)C5)C6)c4)(Cc4cccc(CNC56CC7CC(CC(C7)C5)C6)c4)Cc4cccc(CN(C(=S)NNc5ccc6c(cc5=O)[C@@H](NC(C)=O)CCc5cc(OC)c(OC)c(OC)c5-6)C56CC7CC(CC(C7)C5)C6)c4)c3)C34CC5CC(CC(C5)C3)C4)c(=O)cc1[C@@H](NC(C)=O)CC2 (some centres undefined) :: n
O=C1c2ccccc2-c2nccc3cc(Cl)nc1c23 :: n
Cc1nc2cncc(C#Cc3cncc(C(=O)Nc4ccc(CN5CCN(C)CC5)c(C(F)(F)F)c4)c3)c2nc1C :: n
COc1ccc(C(O)c2cc3c(N)c(C(=O)Nc4cccc(Cl)c4C)sc3nc2C)cc1 (centres undefined) :: n
c1cc(C2CCCCC2)ccc1OCCCCCCN1CCNCC1 :: n

Input line: Please share the test call associated with CC(=N\O)/C(C)=N/O.CC(=N\O)/C(C)=N/O.CC(=N\O)/C(C)=N/O.CC(=N\O)/C(C)=N/O.[Cu].[Cu] .
Output line: n

Input line: Please share the test call associated with CN(C)C(=S)NN=C(c1ccccn1)c1ccccn1 .
Output line: y

Data provenance: PubChem BioAssay (NCI)
